Dear all, this message contains pKi results, target or system D(4) dopamine receptor (Homo sapiens, UniProt P21917).
pKi: −log10 of the molar value.
Measured Parameter: pKi

C#Cc1cccn1C1CCN(Cc2ccccc2)CC1    6.03
O=Cc1ccn(C2CCN(Cc3ccccc3)CC2)c1    6.02
c1ccc(CN2CCC(n3cccc3)CC2)cc1    5.96
